Listed next: entries and their corresponding pIC50.
# Experimental target: GHSR1a (Homo sapiens, UniProt Q92847)
# Sequence (Q92847 whole entry): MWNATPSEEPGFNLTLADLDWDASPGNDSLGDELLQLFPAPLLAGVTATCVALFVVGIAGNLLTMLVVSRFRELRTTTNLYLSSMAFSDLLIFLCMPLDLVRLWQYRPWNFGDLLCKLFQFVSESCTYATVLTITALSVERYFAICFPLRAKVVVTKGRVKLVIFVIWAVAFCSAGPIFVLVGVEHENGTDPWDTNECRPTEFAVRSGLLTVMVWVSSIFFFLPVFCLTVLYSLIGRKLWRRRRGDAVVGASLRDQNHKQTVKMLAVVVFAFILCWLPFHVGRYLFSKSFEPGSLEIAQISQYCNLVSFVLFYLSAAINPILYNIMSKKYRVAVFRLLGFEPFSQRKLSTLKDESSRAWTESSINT
# Test details: Calcium FLIPR assay, GHSR-1a antagonism (reduction of ghrelin response)
# Reported conditions: HEK293/GHSR1a cells, ghrelin 10 nM
pIC50: −log10 of the molar value.
Endpoint: pIC50

>>> print(df.to_string())
                                    compound  qual  observed_result
 0  CC(NC(=O)N(C)C1CCN(C)CC1)c1ccc(-c2cnccn2)c2ccccc12 (stereo not shown)     =             5.92
 1  CC(NC(=O)N(C)C1CCN(C)CC1)c1ccc(-c2ccc(C3CC3)nc2)c(Cl)c1Cl (stereo not shown)     =             8.24
 2  CC(NC(=O)N(C)C1CCN(C)CC1)c1ccc(-c2cn[nH]c2)c(Cl)c1Cl (stereo not shown)     =             7.92
 3  CC(O)C#Cc1ccc(C(C)NC(=O)N(C)C2CCN(C)CC2)c(Cl)c1Cl (stereo not shown)     =             7.02
 4  C#Cc1ccc(C(C)NC(=O)N(O)C2CCN(C)CC2)c(Cl)c1Cl (stereo not shown)     =             7.24
 5  CON(C)C(=O)c1ccc(-c2ccc(C(C)NC(=O)N(C)C3CCN(C)CC3)c(Cl)c2Cl)s1 (stereo not shown)     =             6.26
 6  C[C@H](NC(=O)N(C)C1CCN(C)C1)c1ccc(-c2cnccn2)c(Cl)c1Cl (mixture of isomers) [Compound H0837]     =             8.70
 7  CCON(C(=O)NC(C)c1ccc(-c2cnccn2)c(Cl)c1Cl)C1CCN(C)CC1 (stereo not shown)     =             6.75
 8  CC(C)Oc1ccc(-c2ccc(C(C)NC(=O)N(C)C3CCN(C)CC3)c(Cl)c2Cl)cn1 (stereo not shown)     =             7.16
 9  CN1CCC(N(O)C(=O)NC(CC2CC2)c2ccc(-c3cnccn3)c(Cl)c2Cl)CC1 (single isomer, unassigned) [Compound H0782]     =             8.30
10  CC(NC(=O)N(O)C1CCN(C)CC1)c1ccc(C(F)F)c(Cl)c1Cl (stereo not shown)     <             4.52
11  CN1CCC(N(C)C(=O)NC(c2ccc(-c3cncc(F)n3)c(Cl)c2Cl)C(F)(F)F)CC1 (stereo not shown)     =             8.10
12  CN1CCC(N(C)C(=O)NC(COCc2cccc(CO)c2)c2ccc(-c3cncnc3)c(Cl)c2Cl)CC1 (stereo not shown)     =             7.49
13  CON(C(=O)NC(C#N)c1ccc(-c2cncnc2)c(Cl)c1Cl)C1CCN(C)CC1 (stereo not shown)     =             6.17
14  CC(NC(=O)N(C)C1CCN(C)CC1)c1ccc(C#Cc2cncnc2)c(Cl)c1Cl (stereo not shown)     =             7.22
15  CC(NC(=O)N(C)C1CCN(C)CC1)c1ccc(Nc2cccs2)c(Cl)c1Cl (stereo not shown)     =             6.15

====

# Experimental target: GHSR1a (Homo sapiens, UniProt Q92847)
# Construct: expressed in transfected cells; host or cells: HEK293
# Test details: Calcium FLIPR assay, GHSR-1a antagonism (reduction of ghrelin response)
# Assay type: cell-based
# Reported conditions: HEK293/GHSR1a cells, ghrelin 10 nM
Here, each record is paired with measured IC50 data.
Endpoint: IC50 (nM)

                                   molecule                    experimental_target  unit_spec  observed_result
0  CC(NC(=O)N(C)C1CCN(C)CC1)c1ccc(-c2ccccn2)c(Cl)c1Cl (stereo not shown)  GHSR1a (Homo sapiens, UniProt Q92847)         nM                4
1  CC(NC(=O)N(C)C1CCN(C)CC1)c1ccc(-c2cccc(F)c2)c(Cl)c1Cl (stereo not shown)  GHSR1a (Homo sapiens, UniProt Q92847)         nM               20
2  CC(NC(=O)N(C)C1CCN(C)CC1)c1ccc(-c2cncs2)c2ccccc12 (stereo not shown)  GHSR1a (Homo sapiens, UniProt Q92847)         nM               24
3  Cc1nccnc1-c1ccc(C(CC2CC2)NC(=O)N(C)C2CCN(C)CC2)c(Cl)c1Cl (stereo not shown)  GHSR1a (Homo sapiens, UniProt Q92847)         nM              705

====

# Experimental target: GHSR1a (Homo sapiens)
# Test details: Calcium FLIPR assay, GHSR-1a agonism
# Reported conditions: HEK293/GHSR1a cells
Endpoint: EC50 (nM)

>>> df
                                   compound  endpoint  qual  observed_result
0  CC(NC(=O)N(C)C1CCN(C)CC1)c1ccc(C#C[Si](C)(C)C)c(Cl)c1Cl (stereo not shown)      EC50     >            30000
1  CC(NC(=O)N(C)C1CCN(C)CC1)c1ccc(-c2ccc(C#N)s2)c(Cl)c1Cl (stereo not shown)      EC50     =               29
2  C=Cc1cncc(-c2ccc(C(C)NC(=O)N(C)C3CCN(C)CC3)c(Cl)c2Cl)c1 (stereo not shown)      EC50     =               91
3  COCCn1cc(-c2ccc(C(C)NC(=O)N(C)C3CCN(C)CC3)c(Cl)c2Cl)cn1 (stereo not shown)      EC50     >            30000

====

# Experimental target: GHSR1a (Homo sapiens, UniProt Q92847)
# Test details: Calcium FLIPR assay, GHSR-1a antagonism (reduction of ghrelin response)
# Reported conditions: HEK293/GHSR1a cells, ghrelin 10 nM
pIC50: −log10 of the molar value.
Quick rule: pIC50 of at least 8 means Yes, below that means No.

>>> df
                                    molecule                    experimental_target  class
 0  CN1CCC(N(C)C(=O)NC(C)(C#N)c2ccc(-c3cncnc3)c(Cl)c2Cl)CC1 (stereo not shown) [Compound H0703]  GHSR1a (Homo sapiens, UniProt Q92847)     No
 1  COc1ncc(-c2ccc(C(C)NC(=O)N(C)C3CCN(C)CC3)c(Cl)c2Cl)cn1 (stereo not shown) [Compound H0649]  GHSR1a (Homo sapiens, UniProt Q92847)     No
 2  CCc1ccc(C(C)NC(=O)N(C)C2CCN(C)CC2)c(Cl)c1Cl (stereo not shown) [Compound H0628]  GHSR1a (Homo sapiens, UniProt Q92847)     No
 3  CC(NC(=O)N(C)C1CCN(C)CC1)c1ccc(-c2cccs2)c(Cl)c1Cl (single isomer, unassigned) [Compound H0564]  GHSR1a (Homo sapiens, UniProt Q92847)     No
 4  CC(NC(=O)N(C)C1CCN(C)CC1)c1ccc(-c2cncc(C3CC3)c2)c(Cl)c1Cl (stereo not shown) [Compound H0765]  GHSR1a (Homo sapiens, UniProt Q92847)     No
 5  CC(NC(=O)N(C)C1CCN(C)CC1)c1ccc(-c2ccc(C3CC3)cn2)c(Cl)c1Cl (stereo not shown) [Compound H0849]  GHSR1a (Homo sapiens, UniProt Q92847)     No
 6  CC(NC(=O)N(C)C1CCN(C)CC1)c1ccc(C(=O)Nc2cccs2)c(Cl)c1Cl (stereo not shown) [Compound H0773]  GHSR1a (Homo sapiens, UniProt Q92847)     No
 7  C=Cc1ccc(C(C)NC(=O)N(C)C2CCN(C)CC2)c(Cl)c1Cl (stereo not shown) [Compound H0626]  GHSR1a (Homo sapiens, UniProt Q92847)    Yes
 8  CC(NC(=O)N(C)C1CCN(C)CC1)c1cnc(-c2cnccn2)c(Cl)c1Cl (stereo not shown) [Compound H0881]  GHSR1a (Homo sapiens, UniProt Q92847)     No
 9  CNc1ncc(-c2ccc(C(C)NC(=O)N(C)C3CCN(C)CC3)c(Cl)c2Cl)cn1 (stereo not shown) [Compound H0806]  GHSR1a (Homo sapiens, UniProt Q92847)    Yes
10  CC(NC(=O)N(C)C1CCN(C)CC1)c1ccc(C#N)c(Cl)c1Cl (stereo not shown) [Compound H0523]  GHSR1a (Homo sapiens, UniProt Q92847)     No
11  CC(NC(=O)N(C)C1CCN(C)CC1)c1ccc(-c2cccs2)c(Cl)c1Cl (stereo not shown) [Compound H0536]  GHSR1a (Homo sapiens, UniProt Q92847)    Yes
12  CC(NC(=O)N(C)C1CCN(C)CC1)c1ccc(-c2ccsc2)c(Cl)c1Cl (stereo not shown) [Compound H0498]  GHSR1a (Homo sapiens, UniProt Q92847)     No
